Cited source for all entries: patent US10556944B2

Molecular target: anti-TNFα antibody-Fab (IgG-Fab derived from anti-TNFα monoclonal antibody, adalimumab) (Homo sapiens, UniProt P01834+P01857)
Construct: cleaving a humanized monoclonal IgG formulation as a starting material into a Fab fragment and an Fc fragment by papain; purchased
Assay: Biacore 3000 surface plasmon resonance, affinity of SpG-β1 mutants for immobilized IgG-Fab
Format: binding
Details: Table 2, Example 3; GST-fused one-domain peptide; 25° C., pH 7.4
Where no end group is shown, it is not given here.
valueKind: kon (s/M)
One number for each entry, in s/M.

# substance, endpointValue
data = [
    ("K13T/V21A/F30L/Y33F/D40E: GST-fused one-domain SpG-β1 mutant, amino acid SEQ ID NO: 51 (TTYKLILNGKTLTGETTTEAADAATAEKVLKQFANDNGVEGEWTYDDATKTFTVTE; also: GST-fused)", 139000),
    ("K13T/E19I/K28N/F30L/D40V: GST-fused one-domain SpG-β1 mutant, amino acid SEQ ID NO: 33 (TTYKLILNGKTLTGETTTIAVDAATAENVLKQYANDNGVVGEWTYDDATKTFTVTE; also: GST-fused)", 108000),
    ("K13T/E19I/D22E/A24T/F30L/Y33F/D47G: GST-fused one-domain SpG-β1 mutant, amino acid SEQ ID NO: 79 (TTYKLILNGKTLTGETTTIAVEATTAEKVLKQFANDNGVDGEWTYDGATKTFTVTE; also: GST-fused)", 69500),
    ("K13T/E15T/E19I/T25M/E27G/F30L/N35Y: GST-fused one-domain SpG-β1 mutant, amino acid SEQ ID NO: 63 (TTYKLILNGKTLTGTTTTIAVDAAMAGKVLKQYAYDNGVDGEWTYDDATKTFTVTE; also: GST-fused)", 80700),
]

Q: Which measured kon value corresponds to K13T/E19I/V21N/K28I/F30L: GST-fused one-domain SpG-β1 mutant, amino acid SEQ ID NO: 37 (TTYKLILNGKTLTGETTTIANDAATAEIVLKQYANDNGVDGEWTYDDATKTFTVTE; also: GST-fused) ?
Result: 214000

###

Molecular target: anti-TNFα antibody-Fab (IgG-Fab derived from anti-TNFα monoclonal antibody, adalimumab) (Homo sapiens, UniProt P01834+P01857)
Construct: cleaving a humanized monoclonal IgG formulation as a starting material into a Fab fragment and an Fc fragment by papain; purchased
Test: Biacore 3000 surface plasmon resonance, affinity of SpG-β1 mutants for immobilized IgG-Fab
Assay type: binding
Conditions: Table 3, Example 4; GST-cleaved type (Pep-), constructs Pep.1d, Pep.1dC, Pep.2dC
Hi there, I'd appreciate the recorded KA for every entry that follows.
Give bare numbers, in M⁻¹.

Before answering, review these 4 worked examples.
# substance, readoutUnit, endpointValue
rows = [
    ("Pep.1d K10R/K13T/T18A/E19I/V21D/T25M/F30L/Y33F/N35F/D47A: SpG-β1 mutant, SEQ ID NO: 87, GST-cleaved one domain type (TTYKLILNGRTLTGETTAIADDAAMAEKVLKQFAFDNGVDGEWTYDAATKTFTVTE; SpG mutant)", "M⁻¹", "1.19e+07"),
    ("Pep.1dC K10R/K13T/T18A/E19I/V21D/T25M/F30L/Y33F/N35F/D47A (TTYKLILNGRTLTGETTAIADDAAMAEKVLKQFAFDNGVDGEWTYDAATKTFTVTE)", "M⁻¹", "1.56e+07"),
    ("Pep.1dC K13T/T18A/E19I/V21A/K28I/F30L/Y33F/V39I: SpG-β1 mutant, SEQ ID NO: 85, GST-cleaved one domain type with Cys at the C-terminus (TTYKLILNGKTLTGETTAIAADAATAEIVLKQFANDNGIDGEWTYDDATKTFTVTE; C-terminal Cys; SpG mutant)", "M⁻¹", "9.11e+06"),
    ("Pep.1dC K13T/E19I/V21D/T25M/F30L/Y33F/N35F/D47A (TTYKLILNGKTLTGETTTIADDAAMAEKVLKQFAFDNGVDGEWTYDAATKTFTVTE)", "M⁻¹", "5.47e+06"),
]

Q: Which measured KA value corresponds to Pep.1d K13T/T18A/E19I/V21A/K28I/F30L/Y33F/V39I: SpG-β1 mutant, SEQ ID NO: 85, GST-cleaved one domain type (TTYKLILNGKTLTGETTAIAADAATAEIVLKQFANDNGIDGEWTYDDATKTFTVTE; SpG mutant) ?
Result: 5.34e+06
